Target or system Acinetobacter. baumannii (ATCC BAA-747): recorded MIC50 A. baumannii listed per item.
Where a SMILES comes first, the peptide text is derived from it. Side-chain parts run from the residue outwards. [ ]: non-standard residue; d: D form. The star is where a group is joined. Lys(α,ε-(ArgTrp)2) = N=C(N)NCCC[C@H](N)C(=O)N[C@@H](Cc1c[nH]c2ccccc12)C(=O)NCCCC[C@H](NC(=O)[C@H](Cc1c[nH]c2ccccc12)NC(=O)[C@@H](N)CCCNC(=N)N)C(=O)*; OBn = c1ccc(CO*)cc1; βAla = NCCC(=O)O
The reply should be a number in µg/mL, with the unit left off.

{"compound": "N=C(N)NCCC[C@H](N)C(=O)NC(Cc1c[nH]c2ccc(F)cc12)C(=O)NCCCC[C@H](NC(=O)C(Cc1c[nH]c2ccc(F)cc12)NC(=O)[C@@H](N)CCCNC(=N)N)C(=O)NCCCC[C@H](NC(=O)[C@H](CCCCNC(=O)C(Cc1c[nH]c2ccc(F)cc12)NC(=O)[C@@H](N)CCCNC(=N)N)NC(=O)C(Cc1c[nH]c2ccc(F)cc12)NC(=O)[C@@H](N)CCCNC(=N)N)C(=O)NCCC(N)=O (stereo partly drawn) [Den(RW*)4D]", "study-target": "Acinetobacter. baumannii (ATCC BAA-747)", "measurement-type": "MIC50 A. baumannii", "measured-result": 35}
{"compound": "N=C(N)NCCC[C@H](N)C(=O)N[C@@H](Cc1c[nH]c2ccccc12)C(=O)NCCCC[C@H](NC(=O)[C@H](Cc1c[nH]c2ccccc12)NC(=O)[C@@H](N)CCCNC(=N)N)C(=O)NCCCC[C@H](NC(=O)[C@H](CCCCNC(=O)[C@H](Cc1c[nH]c2ccccc12)NC(=O)[C@@H](N)CCCNC(=N)N)NC(=O)[C@H](Cc1c[nH]c2ccccc12)NC(=O)[C@@H](N)CCCNC(=N)N)C(=O)NCCC(=O)OCc1ccccc1 [(RW)4D-Benzyl ester] (H-RWK([Trp-Arg])K(Lys(α,ε-(ArgTrp)2))[βAla]-OBn)", "study-target": "Acinetobacter. baumannii (ATCC BAA-747)", "measurement-type": "MIC50 A. baumannii", "measured-result": 78.7}

# next compound below
[in] Query MIC50 A. baumannii on Acinetobacter. baumannii (ATCC BAA-747) for NCCCC[C@H](N)C(=O)N[C@@H](Cc1c[nH]c2ccccc12)C(=O)NCCCC[C@H](NC(=O)[C@H](Cc1c[nH]c2ccccc12)NC(=O)[C@@H](N)CCCCN)C(=O)NCCCC[C@H](NC(=O)[C@H](CCCCNC(=O)[C@H](Cc1c[nH]c2ccccc12)NC(=O)[C@@H](N)CCCCN)NC(=O)[C@H](Cc1c[nH]c2ccccc12)NC(=O)[C@@H](N)CCCCN)C(=O)NCCC(N)=O
[out] 52
